Tested on: L1210 leukemia ip in BDF1 mice, survival T/C
Test: NCI In Vivo Anticancer Drug Screen. Data for tumor model L1210 Leukemia (intraperitoneal) in B6D2F1 (BDF1) mice
Conditions: endpoint: mean survival time; dose: 400.0 mg/kg/injection; schedule: Q01DX009 (ip); vehicle: saline sonified; higher = longer survival
Toxic doses and inconclusive results are not listed. Peptide text beside a SMILES is read from it. * marks the point of attachment. Cbz = O=C(OCc1ccccc1)*
T/C values by entry

Compound: O=C(c1ccc(O)cc1)c1ccc(O)cc1O
T/C: 98 % of control

Enquiry: # lookup: T/C of CC(C)C(NC(=O)C1CCCN1C(=O)OCc1ccccc1)C(=O)O (stereo not drawn) (Cbz-Pro-Val-OH; configuration not given here)
Return: 97 % of control

Enquiry: # lookup: T/C of "COc1cc(NC(N)=O)cc(OC)c1OC"
Return: 101 % of control

Enquiry: # lookup: T/C of "COC(=O)c1ccc2c(c1)OCO2"
Return: 102 % of control

Enquiry: # lookup: T/C of "O=[N+]([O-])c1ccc(S)cc1"
Return: 92 % of control
